As shown below, each of these compounds has a reported composite z-score value.
system: XIP peptide (Xip251-270) binding; experiment: XIP fragment 251-270 binding compounds – biochemical, small-molecule microarray, fluorescence 635/667 nm, 0.1 µg/mL protein, primary screen (AID 1182); conditions: fluorescent protein binding, 635 nm, higher = more signal, called active from +8 up or from −8 down
Activity calls are given as the source filed them.

- compound: "CC(C)N1C(=O)c2ccccc2[C@](C)(C(=O)NCC(F)(F)F)[C@@H]1c1ccc(CO)cc1"
  result: "0.112 (inactive)"
- compound: "CC(C)NC(=O)[C@@]1(C)c2ccccc2C(=O)N(Cc2ccccc2)[C@H]1c1ccc(CO)cc1"
  result: "0.0062 (inactive)"
- compound: "C=C(CCCC)/C(=C/C[C@H](OC(=O)c1ccncc1)c1ccccc1OCCO)c1cc(C(=O)OC)ccc1OC"
  result: "0.578 (inactive)"
- compound: "CC=CC(O)C1C=CC2C(=O)NC(=O)C2N1Nc1ccc(Cl)cc1Cl (configuration not stated)"
  result: "-0.223 (inactive)"
- compound: "O=C1C=C(c2ccccc2)C(=O)C2=C1CC([C@H]1Oc3ccccc3S(=O)(=O)N3CCC[C@@H]13)=CC2"
  result: "-0.0015 (inactive)"

## Task Please report the recorded composite z-score for COCCOC(=O)N1C(=O)[C@@]2(c3ccccc31)[C@H](C(=O)N1CCN(c3ncccn3)CC1)[C@H]1C(=O)O[C@H](c3ccccc3)[C@H](c3ccccc3)N1[C@@H]2c1ccccc1OCCO .
## Result 0.044 (inactive)

## Task Please report the recorded composite z-score for COc1ccc([Si](C)(C)[C@@H]2[C@@H](CC(=O)N(CCO)Cc3ccccc3)O[C@]3(C(=O)N(Cc4ccc(N5C(=O)c6cccc7cccc5c67)cc4)c4ccccc43)[C@H]2C)cc1 .
## Result 1.28 (inactive)
